// data source = patent US20140235877A1

# Tested on: HepG2
# EXPERIMENT_NOTES: MTT cell viability assay, HepG2
# Format: cell-based
# TEST_PARAMETERS: Homo sapiens; HepG2, MTT, 72 h; read-out: Cytotoxicity Data IC50

| MOLECULE | IC50 [µM] |
| --- | --- |
| COc1c(OC)c(O)c2c(=O)c3c(CC=C(C)C)c(CC=C(C)C)c(O)c(O)c3oc2c1CC=C(C)C [Compound B] | 20.3 |

###

# Tested on: AGS
# EXPERIMENT_NOTES: MTT cell viability assay, AGS
# TEST_PARAMETERS: Homo sapiens, 72 h, read-out: Cytotoxicity Data IC50 (μM)
PROPERTY: IC50 (µM)

| COMPOUND | MEASUREMENT_UNIT | VALUE |
| --- | --- | --- |
| COc1cc(/C=C/C(=O)CC(=O)/C=C/c2ccc(O)c(OC)c2)ccc1O [Curcumin] | µM | 4.38 |
| COc1c(OC)c(O)c2c(=O)c3c(CC=C(C)C)c(CC=C(C)C)c(O)c(O)c3oc2c1CC=C(C)C [Compound B] | µM | 31.1 |
| CC(=O)O[C@H]1C(=O)[C@@]2(C)[C@H]([C@H](OC(=O)c3ccccc3)[C@]3(O)C[C@H](OC(=O)[C@H](O)[C@@H](NC(=O)c4ccccc4)c4ccccc4)C(C)=C1C3(C)C)[C@]1(OC(C)=O)CO[C@@H]1C[C@@H]2O [Paclitaxel] | µM | 23.1 |
